Assayed Target: Human cKIT on human mobilized peripheral blood hematopoietic stem cells (human, UniProt P10721 26-976)
Experiment: cell-based or functional assay
Recorded Endpoint: EC50 (ng/ml), cell viability after 7 days, Human total nucleated cells (ng/mL)
Number in ng/mL, nothing else.

Consider the binder J16: Anti-cKIT Fab′1 conjugated to Compound (2), DAR 4 (Fab, V domains shown, Compound (2) on native cysteine LC-214C (EU); Compound (2) on native cysteines HC-220C-226C-229C (EU)) VH: QVQLVQSGAEVKKPGSSVKVSCKASGGTFSSYAISWVRQAPGQGLEWMGVIFPAEGAPGYAQKFQGRVTITADESTSTAYMELSSLRSEDTAVYYCARGGYISDFDVWGQGTLVTVSS VL: DIQMTQSPSSLSASVGDRVTITCRASQSISNYLAWYQQKPGKAPKLLIYDASSLQSGVPSRFSGSGSGTDFTLTISSLQPEDFATYYCQQYYYESITFGQGTKVEIKR and give its measured EC50 (ng/ml), cell viability after 7 days, Human total nucleated cells.
6

Consider the binder J17: Anti-cKIT Fab′2 conjugated to mc-MMAF, DAR 4 (Fab, V domains shown, mc-MMAF on native cysteine LC-214C (EU); mc-MMAF on native cysteines HC-220C-226C-229C (EU)) VH: QVQLVQSGAEVKKPGSSVKVSCKASGGTFSSHALSWVRQAPGQGLEWMGGIIPSFGTADYAQKFQGRVTITADESTSTAYMELSSLRSEDTAVYYCARGLYDFDYWGQGTLVTVSS VL: DIQMTQSPSSLSASVGDRVTITCRASQDISQDLAWYQQKPGKAPKLLIYDASSLQSGVPSRFSGSGSGTDFTLTISSLQPEDFAVYYCQQYYYLPSTFGQGTKVEIKR and give its measured EC50 (ng/ml), cell viability after 7 days, Human total nucleated cells.
12

Consider the binder J21: Anti-cKIT Fab′3 conjugated to Compound (5), DAR 4 (Fab, V domains shown, Compound (5) on native cysteine LC-214C (EU); Compound (5) on native cysteines HC-220C-226C-229C (EU)) VH: QVQLVQSGAEVKKPGSSVKVSCKASGGTFSSYAISWVRQAPGQGLEWMGTIGPFEGQPRYAQKFQGRVTITADESTSTAYMELSSLRSEDTAVYYCARGGYISDFDVWGQGTLVTVSS VL: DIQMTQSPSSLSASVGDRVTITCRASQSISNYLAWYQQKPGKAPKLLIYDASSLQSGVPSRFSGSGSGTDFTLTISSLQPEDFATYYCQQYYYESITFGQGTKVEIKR and give its measured EC50 (ng/ml), cell viability after 7 days, Human total nucleated cells.
154

Consider the binder J22: Anti-cKIT Fab′3 conjugated to Compound (2), DAR 4 (Fab, V domains shown, Compound (2) on native cysteine LC-214C (EU); Compound (2) on native cysteines HC-220C-226C-229C (EU)) VH: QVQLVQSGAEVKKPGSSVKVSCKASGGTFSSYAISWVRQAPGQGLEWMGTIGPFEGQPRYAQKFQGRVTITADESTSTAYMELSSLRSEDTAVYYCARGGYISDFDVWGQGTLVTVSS VL: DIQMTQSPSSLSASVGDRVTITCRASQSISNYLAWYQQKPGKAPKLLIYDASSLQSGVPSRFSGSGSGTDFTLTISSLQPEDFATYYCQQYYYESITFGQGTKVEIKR and give its measured EC50 (ng/ml), cell viability after 7 days, Human total nucleated cells.
8

Consider the binder J3: Anti-cKIT Fab′3 conjugated to Compound (1), DAR 4 (Fab, V domains shown, Compound (1) on native cysteine LC-214C (EU); Compound (1) on native cysteines HC-220C-226C-229C (EU)) VH: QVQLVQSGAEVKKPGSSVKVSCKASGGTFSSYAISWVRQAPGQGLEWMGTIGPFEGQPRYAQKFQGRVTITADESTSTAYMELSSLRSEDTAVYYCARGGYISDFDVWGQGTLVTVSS VL: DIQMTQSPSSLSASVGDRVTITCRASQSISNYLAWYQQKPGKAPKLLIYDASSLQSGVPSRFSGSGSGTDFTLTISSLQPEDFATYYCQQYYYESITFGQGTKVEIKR and give its measured EC50 (ng/ml), cell viability after 7 days, Human total nucleated cells.
45
